- Measured Target: Amyloid-beta precursor protein (Homo sapiens)
- Assay Summary: Disaggregation of self-induced amyloid beta (1 to 42) (unknown origin) preformed fibrils at 25 uM by ThT fluorescence assay
Respond with YES for Activity values of 40% and above, NO for values below.

{"Molecule": "CCCCCCC1OC(=O)c2cc(N3N=C(c4ccccc4O)CC3=O)ccc21 (stereo unspecified)", "Measured Target": "Amyloid-beta precursor protein (Homo sapiens)", "Qualitative Label": "YES"}
{"Molecule": "CCCCC1OC(=O)c2cc(N3N=C(c4cc(N(C)C)ccc4O)CC3=O)ccc21 (stereo unspecified)", "Measured Target": "Amyloid-beta precursor protein (Homo sapiens)", "Qualitative Label": "YES"}
{"Molecule": "COc1cc(/C=C/C(=O)CC(=O)/C=C/c2ccc(O)c(OC)c2)ccc1O", "Measured Target": "Amyloid-beta precursor protein (Homo sapiens)", "Qualitative Label": "NO"}
{"Molecule": "CCCCC1OC(=O)c2cc(N3N=C(c4cc(Cl)ccc4O)CC3=O)ccc21 (stereo unspecified)", "Measured Target": "Amyloid-beta precursor protein (Homo sapiens)", "Qualitative Label": "YES"}
{"Molecule": "CCCCC1OC(=O)c2cc(N3N=C(c4ccc(Cl)cc4O)CC3=O)ccc21 (stereo unspecified)", "Measured Target": "Amyloid-beta precursor protein (Homo sapiens)", "Qualitative Label": "YES"}
{"Molecule": "CCCCCCC1OC(=O)c2cc(N3N=C(c4cc(F)ccc4O)CC3=O)ccc21 (stereo unspecified)", "Measured Target": "Amyloid-beta precursor protein (Homo sapiens)", "Qualitative Label": "YES"}
{"Molecule": "CCCCC1OC(=O)c2cc(N3N=C(c4ccc(N(C)C)cc4O)CC3=O)ccc21 (stereo unspecified)", "Measured Target": "Amyloid-beta precursor protein (Homo sapiens)", "Qualitative Label": "NO"}
{"Molecule": "CCCCCCCC1OC(=O)c2cc(N3N=C(c4cc(Cl)ccc4O)CC3=O)ccc21 (stereo unspecified)", "Measured Target": "Amyloid-beta precursor protein (Homo sapiens)", "Qualitative Label": "YES"}
{"Molecule": "CCCCC1OC(=O)c2cc(N3N=C(c4cccc(Br)c4O)CC3=O)ccc21 (stereo unspecified)", "Measured Target": "Amyloid-beta precursor protein (Homo sapiens)", "Qualitative Label": "YES"}
{"Molecule": "O=C1OCc2ccc(N3N=C(c4cccc(F)c4O)CC3=O)cc21", "Measured Target": "Amyloid-beta precursor protein (Homo sapiens)", "Qualitative Label": "NO"}
{"Molecule": "CCCCC1OC(=O)c2cc(N3N=C(c4cc(OC)ccc4O)CC3=O)ccc21 (stereo unspecified)", "Measured Target": "Amyloid-beta precursor protein (Homo sapiens)", "Qualitative Label": "YES"}
{"Molecule": "CCCCCCCC1OC(=O)c2cc(N3N=C(c4cc(OC)ccc4O)CC3=O)ccc21 (stereo unspecified)", "Measured Target": "Amyloid-beta precursor protein (Homo sapiens)", "Qualitative Label": "NO"}
{"Molecule": "CCCCC1OC(=O)c2cc(-n3nc(-c4ccccc4O)cc3C)ccc21 (stereo unspecified)", "Measured Target": "Amyloid-beta precursor protein (Homo sapiens)", "Qualitative Label": "NO"}
{"Molecule": "CCCCC1OC(=O)c2cc(N3N=C(c4cc(F)ccc4O)CC3=O)ccc21 (stereo unspecified)", "Measured Target": "Amyloid-beta precursor protein (Homo sapiens)", "Qualitative Label": "YES"}
{"Molecule": "CCCCCCC1OC(=O)c2cc(N3N=C(c4cc(Cl)ccc4O)CC3=O)ccc21 (stereo unspecified)", "Measured Target": "Amyloid-beta precursor protein (Homo sapiens)", "Qualitative Label": "YES"}
{"Molecule": "CCCCC1OC(=O)c2cc(N3N=C(c4cc([N+](=O)[O-])ccc4O)CC3=O)ccc21 (stereo unspecified)", "Measured Target": "Amyloid-beta precursor protein (Homo sapiens)", "Qualitative Label": "YES"}
{"Molecule": "CCCCC1OC(=O)c2cc(N3N=C(c4cccc(F)c4O)CC3=O)ccc21 (stereo unspecified)", "Measured Target": "Amyloid-beta precursor protein (Homo sapiens)", "Qualitative Label": "YES"}
{"Molecule": "CCCCC1OC(=O)c2cc(N3N=C(c4ccccc4O)CC3=O)ccc21 (stereo unspecified)", "Measured Target": "Amyloid-beta precursor protein (Homo sapiens)", "Qualitative Label": "YES"}
{"Molecule": "CCCCC1OC(=O)c2cc(N3N=C(c4cc(C)ccc4O)CC3=O)ccc21 (stereo unspecified)", "Measured Target": "Amyloid-beta precursor protein (Homo sapiens)", "Qualitative Label": "NO"}
{"Molecule": "CCCCC1OC(=O)c2cc(N3N=C(c4cc(Br)ccc4O)CC3=O)ccc21 (stereo unspecified)", "Measured Target": "Amyloid-beta precursor protein (Homo sapiens)", "Qualitative Label": "YES"}
{"Molecule": "CCCCCCCC1OC(=O)c2cc(N3N=C(c4ccccc4O)CC3=O)ccc21 (stereo unspecified)", "Measured Target": "Amyloid-beta precursor protein (Homo sapiens)", "Qualitative Label": "YES"}
{"Molecule": "CCCCC1OC(=O)c2cc(N3N=C(c4cc(Cl)cc(Br)c4O)CC3=O)ccc21 (stereo unspecified)", "Measured Target": "Amyloid-beta precursor protein (Homo sapiens)", "Qualitative Label": "YES"}
{"Molecule": "CCCCC1OC(=O)c2cc(N3N=C(c4ccc(Br)cc4O)CC3=O)ccc21 (stereo unspecified)", "Measured Target": "Amyloid-beta precursor protein (Homo sapiens)", "Qualitative Label": "YES"}
{"Molecule": "CCCCC1OC(=O)c2cc(N3N=C(c4cc(Cl)cc(Cl)c4O)CC3=O)ccc21 (stereo unspecified)", "Measured Target": "Amyloid-beta precursor protein (Homo sapiens)", "Qualitative Label": "YES"}
{"Molecule": "O=C1OCc2ccc(N3N=C(c4ccccc4O)CC3=O)cc21", "Measured Target": "Amyloid-beta precursor protein (Homo sapiens)", "Qualitative Label": "NO"}

Every entry's value here was drawn from ChEMBL document CHEMBL5620344.
